- EXPERIMENTAL_TARGET: T1, VLP noro antigen derived from the norovirus GII/4, composed by associating 90 dimers of VP1 each including … (norovirus GII/4, UniProt P54635 1-539)
- T1 construct: Virus-like particle; also called solid phase VLP
- T1 chain: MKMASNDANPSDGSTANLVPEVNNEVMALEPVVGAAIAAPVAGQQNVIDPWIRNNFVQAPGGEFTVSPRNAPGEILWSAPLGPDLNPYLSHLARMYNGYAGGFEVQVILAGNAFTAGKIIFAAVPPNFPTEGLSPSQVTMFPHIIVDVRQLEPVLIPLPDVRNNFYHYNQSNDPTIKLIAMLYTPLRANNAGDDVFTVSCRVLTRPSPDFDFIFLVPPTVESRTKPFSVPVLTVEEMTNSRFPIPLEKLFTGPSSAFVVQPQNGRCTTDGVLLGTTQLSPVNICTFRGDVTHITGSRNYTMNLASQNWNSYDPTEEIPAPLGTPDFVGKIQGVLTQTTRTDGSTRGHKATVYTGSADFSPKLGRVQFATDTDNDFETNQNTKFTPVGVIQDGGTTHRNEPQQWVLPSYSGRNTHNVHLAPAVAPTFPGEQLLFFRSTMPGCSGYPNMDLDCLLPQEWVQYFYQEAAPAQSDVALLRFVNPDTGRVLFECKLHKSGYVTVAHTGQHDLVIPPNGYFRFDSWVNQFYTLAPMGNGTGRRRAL
- TEST_DETAILS: SPR (T200, CM3), VLP noro antigen immobilized, antibody as analyte
EXPERIMENTAL_READOUT: Kd (nM)
Kindly answer with a numeric value in nM, unit omitted.

q: // fetch Kd given entry VHH antibody including the amino acid sequence represented by SEQ ID NO: 39 (VHH, also called Monovalent 65; not shown: C-terminal 3xFlag tag and His tag from the modified pET22b(+) vector) VHH: QLQLVESGGGLVQAGGSLRLSCVASGFPFASSAMAWFRQAPGKEREFVASISYRGITTYYAQPVKGRFTMSRDNAKNTVYLQMNSLKPEDTAVYYCYAKSIWGNAYWGQGTQVTVSP
a: 54.8
